tested on: ACHN renal; assay: NCI-60 one-dose screen, 48 h (100 = growth as untreated, 0 = no growth, -100 = all killed); settings: 10 µM unless noted
Compounds without any hit were thinned out: in the full panel of roughly 83,000, 20% have a hit.
Readout: growth (%)
Dear colleague, please return just the value in %, with no unit written.

- Compound: "C#C[C@]1(O)CC[C@H]2[C@@H]3CC=C4c5sc(NCc6ccccc6)nc5CC[C@]4(C)[C@H]3CC[C@@]21C"
  Unit String: "%"
  Test Value: 61.8
- Compound: "CCN(CC)c1ccc(/C=N/NC(=O)c2ccc(S(N)(=O)=O)cc2)c(O)c1"
  Unit String: "%"
  Test Value: 14.8
- Compound: "Cn1c(SCC(=O)c2ccc(Br)cc2)nc2ccccc2c1=O"
  Unit String: "%"
  Test Value: 96.1
- Compound: "C[C@H]1OCC2(CCN(c3cnc(C(=O)Nc4cc(F)cc5cccnc45)cn3)CC2)[C@H]1N"
  Unit String: "%"
  Test Value: 33.7
- Compound: "O=c1[nH][nH]c(-c2ccc(F)cc2)c1-c1nc2ccccc2s1"
  Unit String: "%"
  Test Value: 95.1

(Q) Which growth value is on record for CC(=O)N1N=C(c2cc3ccccc3oc2=O)CC1c1cn(-c2ccccc2)nc1-c1ccc(C)cc1 (stereo not drawn) ?
(A) 97.8

(Q) What do you have for NC1[C@H]2CN(c3cnc(C(=O)Nc4cc(F)cc5cccnc45)cn3)C[C@@H]12 (stereo partly drawn) ?
(A) 32.5

(Q) Another compound to look at: "Clc1ccc2[nH]cc(-c3nn4cc(-c5cccnc5)nc4s3)c2c1"
(A) 87.8

----------
system: A549/ATCC NSCLC; test: NCI-60 one-dose screen, 48 h; settings: 10 µM unless noted
About 83,000 compounds went through this panel and 20% of them were active in at least one assay; those are over-represented in the sample as a whole. Activity calls are given as the source filed them. The calls were made as follows: active = growth percent below 10; inactive = the rest.
Lab note: assign the record to one of active, inactive

- Compound: "CN1CCN(c2ccc(Nc3nc(NCCCNS(=O)(=O)c4ccc(Cl)cc4)c4sccc4n3)cc2)CC1"
  Qualitative Label: "inactive"

(Q) Please let me know the test result on file for "CC1(C)CC[C@]23CC[C@]4(C)[C@H](CC[C@@H]5[C@@]6(C)CC[C@H](NCO)C(C)(C)[C@@H]6CC[C@]54C)[C@H]2[C@H]1OC3" .
(A) inactive

(Q) Repeat for the following compound: "CN1CCN(c2ccc(C(=O)/C=C/c3cc(F)cc(C(F)(F)F)c3)cc2)CC1"
(A) inactive

(Q) Another compound to look at: NS(=O)(=O)c1ccc(Nc2nc(Nc3ccccc3)nc(N3N=C(c4ccc(Cl)cc4)CC3c3ccc(Cl)cc3)n2)cc1 (centres undefined)
(A) inactive

(Q) And for "CC(=O)N(O)CCCCCNC(=O)CCC(=O)N(O)CCCCCNC(=O)CCC(=O)N(O)CCCCCN(CCCCCCCCCC[P+](c1ccccc1)(c1ccccc1)c1ccccc1)CCCCCCCCCC[P+](c1ccccc1)(c1ccccc1)c1ccccc1" ?
(A) active

(Q) "CN1CCN(Cc2ccc(NC(=O)c3cncc(C#Cc4cnc5ccc(OCCCS(C)(=O)=O)nn45)c3)cc2C(F)(F)F)CC1" ?
(A) active

(Q) Proceed to NC1[C@H]2CN(c3cnc(C(=O)Nc4cc(F)cc5cccnc45)cn3)C[C@@H]12 (some centres undefined)
(A) inactive

(Q) Same read-out for "Brc1cc(-c2cc(-c3ccc4c(c3)OCCO4)[nH]n2)cs1" ?
(A) inactive

(Q) Try "COc1ccc(/C=N/N=C(/c2ccccc2)c2ccc3nc(-c4ccc(Cl)cc4)[nH]c3c2)cc1" next.
(A) inactive

src = PubChem BioAssay (NCI)
